Study target: Leukotriene B4 receptor (Homo sapiens) (UniProt Q9NPC1+Q15722)
Sequence (Q15722 whole entry, looked up): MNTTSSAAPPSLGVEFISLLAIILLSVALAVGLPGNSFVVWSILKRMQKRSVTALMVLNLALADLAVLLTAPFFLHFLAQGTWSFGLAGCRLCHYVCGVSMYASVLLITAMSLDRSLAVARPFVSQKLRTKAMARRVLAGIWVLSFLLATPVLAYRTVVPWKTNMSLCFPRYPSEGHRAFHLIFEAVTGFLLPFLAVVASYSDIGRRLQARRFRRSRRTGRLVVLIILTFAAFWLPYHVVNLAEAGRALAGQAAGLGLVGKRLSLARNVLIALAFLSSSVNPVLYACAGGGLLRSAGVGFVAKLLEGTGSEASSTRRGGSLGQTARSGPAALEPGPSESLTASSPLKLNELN
Sequence (Q9NPC1 whole entry, looked up): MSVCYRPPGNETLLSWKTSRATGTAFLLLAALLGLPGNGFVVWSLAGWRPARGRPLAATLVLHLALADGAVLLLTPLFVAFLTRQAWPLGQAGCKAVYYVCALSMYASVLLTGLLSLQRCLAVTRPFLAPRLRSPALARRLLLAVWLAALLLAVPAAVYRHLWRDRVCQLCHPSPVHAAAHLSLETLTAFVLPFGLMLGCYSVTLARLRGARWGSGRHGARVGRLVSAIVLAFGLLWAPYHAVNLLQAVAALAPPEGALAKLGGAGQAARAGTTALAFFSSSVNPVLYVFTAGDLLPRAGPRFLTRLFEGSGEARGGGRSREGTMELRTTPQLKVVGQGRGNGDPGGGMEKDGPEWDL
Procedure text: Antagonistic activity against Leukotriene B4 receptor by using [3H]- LTB4 as a radioligand at a concentration of 10e-6 M
Type: functional
Experimental endpoint: inhibition (%)

Compound	inhibition / %
COc1ccc(/C=C/CCCCOc2ccc(C(=O)c3cccc(C(=O)O)c3)cc2CCC(=O)O)c(OC)c1	96
COc1ccc(CCCCCCOc2ccc(C(=O)c3cccc(C(=O)O)c3)cc2CCC(=O)O)cc1	96
O=C(O)CCc1cc(C(=O)c2cccc(C(=O)O)c2)ccc1OCCc1ccccc1	3
COc1ccc(/C=C\CCCCOc2ccc(C(=O)c3cccc(C(=O)O)c3)cc2CCC(=O)O)cc1	76
O=C(O)CCc1cc(C(=O)c2cccc(C(=O)O)c2)ccc1OCCCCCCc1ccccc1	85

a = CC(=O)c1ccc(CCCCCCOc2ccc(C(=O)c3cccc(C(=O)O)c3)cc2CCC(=O)O)cc1
b = O=C(O)CCc1cc(C(=O)c2cccc(C(=O)O)c2)ccc1OCCCCc1ccccc1
// compare: a vs b , metric inhibition, want the smaller // respond with label for picked entry b
(b: 21%, a: 90%)

----------
Study target: Leukotriene B4 receptor 1 (Homo sapiens)
Procedure text: Inhibition of specific binding of [3H]LTB4 to Leukotriene B4 receptor in human neutrophils
Experimental endpoint: pIC50
// returns pIC50 (minus log10 of molar concentration), number only

The compound listed as `COc1ccc(/C=C/CCCCOc2ccc(C(=O)c3cccc(C(=O)O)c3)cc2CCC(=O)O)cc1` has a reported pIC50 of 7.88

----------
Study target: Leukotriene B4 receptor (Homo sapiens) (UniProt Q9NPC1+Q15722)
Procedure text: Antagonistic activity against Leukotriene B4 receptor by using [3H]- LTB4 as a radioligand at a concentration of 10e-5 M
Type: functional
Experimental endpoint: inhibition (%)

Molecule	inhibition / %
O=C(O)CCc1cc(C(=O)c2cccc(C(=O)O)c2)ccc1OCCCCc1cccs1	72
COc1cccc(/C=C/CCCCOc2ccc(C(=O)c3cccc(C(=O)O)c3)cc2CCC(=O)O)c1	99
C[S+]([O-])c1ccc(/C=C/CCCCOc2ccc(C(=O)c3cccc(C(=O)O)c3)cc2CCC(=O)O)cc1 (stereo not drawn)	99
COc1ccccc1/C=C/CCCCOc1ccc(C(=O)c2cccc(C(=O)O)c2)cc1CCC(=O)O	100
O=C(O)CCc1cc(C(=O)c2cccc(C(=O)O)c2)ccc1OCCCCCCc1ccc(F)cc1	100
O=C(O)CCc1cc(C(=O)c2cccc(C(=O)O)c2)ccc1OCCCCOc1ccccc1	67

P = CSc1ccc(/C=C/CCCCOc2ccc(C(=O)c3cccc(C(=O)O)c3)cc2CCC(=O)O)cc1
Q = CCCCCCOc1ccc(C(=O)c2cccc(C(=O)O)c2)cc1CCC(=O)O
// compare: P vs Q , metric inhibition, want the smaller // respond with label for picked entry Q
(Q: 56%, P: 100%)

----------
Study target: Leukotriene B4 receptor 1 (Homo sapiens, UniProt Q15722)
Procedure text: Inhibition of binding of B4 (LTB4) to its Leukotriene B4 receptor on intact human neutrophils at a concentration of 10e -7M.
Experimental endpoint: inhibition (%)

Molecular string	Study target	Experimental endpoint	Result value
CCCCCCOc1ccc(C(=O)c2cccc(C(=O)O)c2)cc1CCC(=O)O	Leukotriene B4 receptor 1 (Homo sapiens, UniProt Q15722)	inhibition	0
CCOc1ccc(C(=O)c2cccc(C(=O)O)c2)cc1CCC(=O)O	Leukotriene B4 receptor 1 (Homo sapiens, UniProt Q15722)	inhibition	0
CCCCCCCCCCCCCCOc1ccc(C(=O)c2cccc(C(=O)O)c2)cc1CCC(=O)O	Leukotriene B4 receptor 1 (Homo sapiens, UniProt Q15722)	inhibition	0

P = CCCCCCCCCCOc1ccc(C(=O)c2cccc(C(=O)O)c2)cc1CCC(=O)O
Q = O=C(O)CCc1cc(C(=O)c2cccc(C(=O)O)c2)ccc1OCCCCCCc1ccccc1
// compare: P vs Q , metric inhibition, want the smaller // respond with label for picked entry P

Sourced from ChEMBL document CHEMBL1124984
